These entries and their values trace back to patent US20240182536A1.

Molecular target: T1, IL-18 receptors on HEK-Blue IL-18 reporter cells (InvivoGen) (UniProt Q13478 19-541; O95256 20-599)
T1 sequence (looked up) 1: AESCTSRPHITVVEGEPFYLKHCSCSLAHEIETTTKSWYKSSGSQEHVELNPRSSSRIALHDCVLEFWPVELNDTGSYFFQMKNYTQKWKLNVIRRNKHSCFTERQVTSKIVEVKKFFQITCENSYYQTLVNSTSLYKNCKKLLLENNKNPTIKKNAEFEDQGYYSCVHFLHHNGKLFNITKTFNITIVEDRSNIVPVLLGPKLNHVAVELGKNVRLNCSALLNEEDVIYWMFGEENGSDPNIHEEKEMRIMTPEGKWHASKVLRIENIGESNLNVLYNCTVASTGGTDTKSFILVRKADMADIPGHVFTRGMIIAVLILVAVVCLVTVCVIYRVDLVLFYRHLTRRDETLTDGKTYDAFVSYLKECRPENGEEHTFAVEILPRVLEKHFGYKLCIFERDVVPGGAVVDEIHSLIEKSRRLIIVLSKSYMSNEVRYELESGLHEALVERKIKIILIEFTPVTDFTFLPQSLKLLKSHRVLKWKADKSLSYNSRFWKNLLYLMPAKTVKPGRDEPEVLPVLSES
T1 sequence (looked up) 2: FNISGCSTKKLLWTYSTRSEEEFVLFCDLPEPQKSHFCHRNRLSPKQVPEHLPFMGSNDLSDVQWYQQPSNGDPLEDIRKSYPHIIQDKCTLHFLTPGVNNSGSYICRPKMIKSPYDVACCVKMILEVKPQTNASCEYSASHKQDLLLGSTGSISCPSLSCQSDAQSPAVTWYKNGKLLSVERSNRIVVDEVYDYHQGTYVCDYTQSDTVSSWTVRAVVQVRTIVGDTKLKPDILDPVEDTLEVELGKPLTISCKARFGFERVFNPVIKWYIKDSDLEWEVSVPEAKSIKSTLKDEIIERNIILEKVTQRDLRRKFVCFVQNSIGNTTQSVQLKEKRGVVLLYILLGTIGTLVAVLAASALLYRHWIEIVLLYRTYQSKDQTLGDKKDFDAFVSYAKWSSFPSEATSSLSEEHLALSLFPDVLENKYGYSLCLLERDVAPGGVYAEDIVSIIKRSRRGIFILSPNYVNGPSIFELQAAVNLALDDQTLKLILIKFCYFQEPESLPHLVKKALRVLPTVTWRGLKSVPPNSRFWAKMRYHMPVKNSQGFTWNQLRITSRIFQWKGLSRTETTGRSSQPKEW
Experiment: cell-based or functional assay

BINDER: Comparator 1 (human IL-18 variant M51K, K53S, Q56L, P57A, M60L, S105D, D110S, N111R) (ligand) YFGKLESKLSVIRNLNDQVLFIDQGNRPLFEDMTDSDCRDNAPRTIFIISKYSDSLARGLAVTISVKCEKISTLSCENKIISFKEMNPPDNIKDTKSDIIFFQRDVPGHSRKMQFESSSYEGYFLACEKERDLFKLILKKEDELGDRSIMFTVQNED
MEASUREMENT UNITS: pM
HEK-Blue EC50 pM, NO BP (300 nM BP run): 0.13
--
BINDER: IL-18 variant G3V, E6K, K53A (ligand, also called G3V, K53A, E6K) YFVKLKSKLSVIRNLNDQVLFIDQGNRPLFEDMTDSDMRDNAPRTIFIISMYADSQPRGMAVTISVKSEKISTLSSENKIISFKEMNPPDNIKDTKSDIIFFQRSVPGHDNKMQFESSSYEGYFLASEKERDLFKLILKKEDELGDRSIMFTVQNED
MEASUREMENT UNITS: pM
HEK-Blue EC50 pM, NO BP (300 nM BP run): 0.02
--
BINDER: IL-18 variant G3V, M60K (ligand) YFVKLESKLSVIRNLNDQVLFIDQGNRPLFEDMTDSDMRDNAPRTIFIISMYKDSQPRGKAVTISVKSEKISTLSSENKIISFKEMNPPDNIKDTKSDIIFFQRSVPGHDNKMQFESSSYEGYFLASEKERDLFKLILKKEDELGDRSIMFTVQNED
MEASUREMENT UNITS: pM
HEK-Blue EC50 pM, NO BP (300 nM BP run): 0.18
